# targetOrSystem: T1, BFL-1ΔC C55 (N-His6 BFL-1ΔC (1–151) bearing C4S/C19S mutations) (human, UniProt Q16548 1-151, C4S | C19S)
# T1 sequence (looked up): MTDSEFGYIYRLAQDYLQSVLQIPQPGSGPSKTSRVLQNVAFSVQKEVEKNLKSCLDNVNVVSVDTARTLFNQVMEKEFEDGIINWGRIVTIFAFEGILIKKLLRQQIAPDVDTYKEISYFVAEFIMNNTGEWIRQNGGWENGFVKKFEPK
# testProtocol: fluorescence polarisation
Where no end group is shown, it is not given here. The star is where a group is joined. FITC = O=C1OC2(c3ccc(O)cc3Oc3cc(O)ccc32)c2ccc(NC(=S)*)cc21
reportedProperty: Kd (nM)
Numeric answer only, unit nM assumed.

Fill in Kd for record {FITC}-DIIRNIARHLAQVGDSMDRSI [FITC-BID BH3 peptide] 12.3
